Where do the numbers come from? From PubChem BioAssay (NCI).

# Tested on: HCC-2998 colon
# assay_procedure: NCI tumour cell line growth inhibition, 48 h; in the data active = GI50 below about 0.43 µM; inactive = the rest
Answer with one of the outcomes given here: true (1) (active), false (0) (inactive)

>  <compound>
Clc1cccc(Cc2cn3cc(-c4ccccc4)nc3s2)c1Cl

>  <assigned_category>
false (0)

$$$$
>  <compound>
CC(=O)[O][Hg][c]1c(N)c(C)cc(C)c1F

>  <assigned_category>
false (0)

$$$$

For `COc1cc2nc(C)nc(N[C@H](C)c3cc(N)cc(C(F)(F)F)c3)c2cc1O[C@H]1CCOC1` , which call appears in the assay record?
false (0)

For `COc1cc(/C=C/c2cc(/C=C/c3ccc(O)c(OC)c3)n(C(=O)Nc3ccc(F)cc3)n2)ccc1O` , which call appears in the assay record?
false (0)

For COc1cc2c(c(OC)c1O)C(=O)C(OC)C(c1ccc(O)c(O)c1)O2 (configuration not stated) , which call appears in the assay record?
false (0)

For `CCOC(=O)Nc1nc2ccc(OCC)cc2s1` , which call appears in the assay record?
false (0)

For `O=C1c2cccnc2-c2nc(-c3ccccc3[N+](=O)[O-])cc3c2c1nc1ccccc13` , which call appears in the assay record?
false (0)

For `CN(C)c1ccc(-c2cc(-c3ccc(Nc4nc(Nc5ccc(Cl)cc5)nc(Nc5ccc(Cl)cc5)n4)cc3)no2)cc1` , which call appears in the assay record?
false (0)

For `Nc1cc2nc3ccccc3sc-2cc1=O` , which call appears in the assay record?
false (0)

For `COc1ccc(-c2cc(-c3ccc(Nc4nc(Nc5ccccc5)nc(Nc5ccc(Cl)cc5)n4)cc3)nc(N)c2C#N)cc1` , which call appears in the assay record?
false (0)

For `Oc1ccc(Cl)cc1-c1cc(-c2ccccc2Cl)[nH]n1` , which call appears in the assay record?
false (0)

For `O=C(NCCNc1nccc(-c2c(-c3cccc(O)c3)nc3sccn23)n1)c1ccccc1O` , which call appears in the assay record?
false (0)

For CCOc1ccccc1-n1c(CN2CCN(C(=O)COc3ccc(CNCCCCCCN4C5CCCC4CC(OC(=O)Nc4cc(C)ccc4OC)C5)cc3)CC2)nc2ccccc2c1=O (configuration not stated) , which call appears in the assay record?
false (0)

For `Fc1ccc(Nc2ncnc3ccc(-c4cnc5[nH]ccc5c4)cc23)cc1Cl` , which call appears in the assay record?
false (0)

For CC1(C)COC(c2ccc(C(F)(F)F)cc2C(O)c2ccc3ccccc3c2)=N1 (configuration not stated) , which call appears in the assay record?
false (0)

For `O=C(Nc1ccc(I)cc1)c1cc([N+](=O)[O-])ccc1O` , which call appears in the assay record?
false (0)

For NC(CSC(c1ccccc1)(c1ccccc1)c1ccc2c(c1)OCO2)C(=O)O (configuration not stated) , which call appears in the assay record?
true (1)

====

# System: NCI-H23 lung
# assay_procedure: NCI tumour cell line growth inhibition, 48 h
Listing of recorded TGI by entry.

Previously resolved entries follow.
>  <compound>
O=C(CN1CCN(c2cc3c(cc2F)c(=O)c(C(=O)N/N=C/c2ccccc2O)cn3C2CC2)CC1)N/N=C\c1ccccc1O

>  <TGI>
> 100 µM

$$$$
>  <compound>
C=CC[C@H]1O[Si](C(C)(C)C)(C(C)(C)C)[C@H](C)[C@H]1C

>  <TGI>
> 100 µM

$$$$
>  <compound>
NC(N)=Nc1ccc(-c2ccc(N=C(N)N)cc2)cc1

>  <TGI>
> 100 µM

$$$$
>  <compound>
O=c1n(CC2CO2)c(=O)n(CC2CO2)n1CC1CO1 (stereo not given)

>  <TGI>
> 100 µM

$$$$

Here is another compound to look at.
Return reported TGI. Input compound: `CN(C)CCCNC1=C(Cl)C(=O)c2ccccc2C1=O`
3.87 µM
